- Assayed Target: polyamine binding site (ifenprodil binding site at the NMDA receptor/ion channel complex) (Rattus norvegicus, UniProt P35439+Q00960)
- Construct: Homogenates of rat forebrain were centrifuged repeatedly; from tissue; host or cells: rat forebrain membranes
- Sequence (Q00960 27-1482, other chains not shown): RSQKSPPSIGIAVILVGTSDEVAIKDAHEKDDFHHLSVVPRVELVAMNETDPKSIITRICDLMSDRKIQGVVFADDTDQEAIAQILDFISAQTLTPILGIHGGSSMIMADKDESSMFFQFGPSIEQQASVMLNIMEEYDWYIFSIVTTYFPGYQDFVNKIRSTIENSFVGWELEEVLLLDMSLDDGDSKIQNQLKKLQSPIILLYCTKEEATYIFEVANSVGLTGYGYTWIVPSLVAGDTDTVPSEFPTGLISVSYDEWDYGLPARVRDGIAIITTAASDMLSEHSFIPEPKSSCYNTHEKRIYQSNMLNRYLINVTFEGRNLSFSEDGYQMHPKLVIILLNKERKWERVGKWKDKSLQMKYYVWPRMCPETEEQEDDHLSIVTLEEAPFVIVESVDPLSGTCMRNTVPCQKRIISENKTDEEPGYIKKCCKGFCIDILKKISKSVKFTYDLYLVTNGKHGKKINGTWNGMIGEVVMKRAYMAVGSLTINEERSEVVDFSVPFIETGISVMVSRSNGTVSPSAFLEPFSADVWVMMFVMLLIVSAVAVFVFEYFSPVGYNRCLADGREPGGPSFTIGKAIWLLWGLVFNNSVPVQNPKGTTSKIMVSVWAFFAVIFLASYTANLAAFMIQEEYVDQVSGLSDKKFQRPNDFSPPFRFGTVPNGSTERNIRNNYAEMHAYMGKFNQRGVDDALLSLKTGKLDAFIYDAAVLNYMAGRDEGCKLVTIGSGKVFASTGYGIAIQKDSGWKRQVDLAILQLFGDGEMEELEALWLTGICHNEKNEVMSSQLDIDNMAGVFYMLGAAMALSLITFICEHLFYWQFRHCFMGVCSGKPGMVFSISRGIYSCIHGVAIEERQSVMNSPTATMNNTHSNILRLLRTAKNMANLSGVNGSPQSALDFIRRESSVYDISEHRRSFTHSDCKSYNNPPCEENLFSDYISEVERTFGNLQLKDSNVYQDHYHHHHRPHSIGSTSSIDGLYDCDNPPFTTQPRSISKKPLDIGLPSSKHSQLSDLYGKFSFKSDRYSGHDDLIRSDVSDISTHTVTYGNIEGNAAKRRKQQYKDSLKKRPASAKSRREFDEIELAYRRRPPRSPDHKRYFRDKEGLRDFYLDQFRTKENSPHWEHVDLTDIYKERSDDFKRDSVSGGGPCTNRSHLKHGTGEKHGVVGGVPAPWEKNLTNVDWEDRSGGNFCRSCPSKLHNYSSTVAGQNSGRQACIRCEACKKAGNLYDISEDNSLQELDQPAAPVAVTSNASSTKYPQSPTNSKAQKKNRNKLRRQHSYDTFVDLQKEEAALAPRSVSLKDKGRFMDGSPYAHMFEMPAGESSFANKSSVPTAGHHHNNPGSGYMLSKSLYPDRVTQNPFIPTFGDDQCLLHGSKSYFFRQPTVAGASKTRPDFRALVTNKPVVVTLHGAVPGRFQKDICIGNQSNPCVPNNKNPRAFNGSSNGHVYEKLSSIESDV
- Assay: Ifenprodil binding ([3H]-ifenprodil displacement, rat forebrain membranes)
- Condition Label: rat forebrain homogenate, 1.15 nM [3H]-ifenprodil, pH 7.4; methanesulfonate salts; read-out: Ifenprodil binding in vitro 50% displacement/IC50 at:
pIC50: −log10 of the molar value.
Quantity Kind: pIC50

{"Compound": "O=C1O[C@@H](CN2CCC(Cc3ccc(F)cc3)CC2)CN1c1ccc(O)cc1 [R = OH]", "pIC50": 8.00}

**Q:** Fill in the blank: the reported pIC50 of O=C1O[C@@H](CN2CCC(Cc3ccc(F)cc3)CC2)CN1c1ccc(F)cc1 [R = F, reference compound] is ____.
**A:** < 6.00

**Q:** Further, for COc1ccc(N2C[C@H](CN3CCC(Cc4ccc(F)cc4)CC3)OC2=O)cc1 [R = OCH3, reference compound] ?
**A:** < 6.00

**Q:** Further, for Cc1ccc(N2C[C@H](CN3CCC(Cc4ccc(F)cc4)CC3)OC2=O)cc1 [R = CH3, reference compound] ?
**A:** < 6.00

Numbers sourced from patent US6413989B1.
